Hey, just so you know, these numbers are from ChEMBL document CHEMBL3351456.

List of CC50 values.
- PROTOCOL: Cytotoxicity against human MRC5 cells
- Assay type: cell-based
REPORTED_METRIC: CC50

| COMPOUND_SMILES | REPORTED_METRIC | REPORTED_MEASUREMENT |
| --- | --- | --- |
| Nc1ncc(F)c2c1ncn2[C@@H]1C[C@H](O)[C@@H](O)[C@H]1O | CC50 | > 100 µM |
| Nc1ncc(F)c2c1ncn2[C@@H]1C[C@H](CO)[C@@H](O)[C@H]1O | CC50 | > 100 µM |
| Nc1ncc(F)c2c1ncn2[C@@H]1C[C@H](CCO)[C@@H](O)[C@H]1O | CC50 | > 100 µM |
